- Tested on: Clone 7 ZFP (6-finger) (artificial)
- assay-name: EMSA
- condition: probe flanks not given; Table 5 prints TAGGTGGCATTGGGTGCTC, listing SEQ 67 tacgtggcattgggtgctc
pKd: −log10 of the molar value.
readout-label: pKd

Query :: Reported pKd for TACGTGGCATTGGGTGCTC (double strand) [Clone 7 target] : what is it?
Result :: > 11.52

----------
- Tested on: Clone 5 ZFP (BCTV whole L1, 6-finger) (artificial)
- assay-name: EMSA
- condition: probe 0.03 fmol per 10 ul; vast majority bound at 3 pM; 0.1 mM ZnCl2
pKd: −log10 of the molar value.
readout-label: pKd

Query :: // fetch Clone 5 ZFP (BCTV whole L1, 6-finger) (artificial) pKd for TATATATATTGGGTGCTTTGGGTGCTCTATATATA (double strand) [BCTV whole L1 probe]
Result :: > 11.52
